Target: AnigAgdA (Aspergillus niger)
Sequence (P56526 26-985): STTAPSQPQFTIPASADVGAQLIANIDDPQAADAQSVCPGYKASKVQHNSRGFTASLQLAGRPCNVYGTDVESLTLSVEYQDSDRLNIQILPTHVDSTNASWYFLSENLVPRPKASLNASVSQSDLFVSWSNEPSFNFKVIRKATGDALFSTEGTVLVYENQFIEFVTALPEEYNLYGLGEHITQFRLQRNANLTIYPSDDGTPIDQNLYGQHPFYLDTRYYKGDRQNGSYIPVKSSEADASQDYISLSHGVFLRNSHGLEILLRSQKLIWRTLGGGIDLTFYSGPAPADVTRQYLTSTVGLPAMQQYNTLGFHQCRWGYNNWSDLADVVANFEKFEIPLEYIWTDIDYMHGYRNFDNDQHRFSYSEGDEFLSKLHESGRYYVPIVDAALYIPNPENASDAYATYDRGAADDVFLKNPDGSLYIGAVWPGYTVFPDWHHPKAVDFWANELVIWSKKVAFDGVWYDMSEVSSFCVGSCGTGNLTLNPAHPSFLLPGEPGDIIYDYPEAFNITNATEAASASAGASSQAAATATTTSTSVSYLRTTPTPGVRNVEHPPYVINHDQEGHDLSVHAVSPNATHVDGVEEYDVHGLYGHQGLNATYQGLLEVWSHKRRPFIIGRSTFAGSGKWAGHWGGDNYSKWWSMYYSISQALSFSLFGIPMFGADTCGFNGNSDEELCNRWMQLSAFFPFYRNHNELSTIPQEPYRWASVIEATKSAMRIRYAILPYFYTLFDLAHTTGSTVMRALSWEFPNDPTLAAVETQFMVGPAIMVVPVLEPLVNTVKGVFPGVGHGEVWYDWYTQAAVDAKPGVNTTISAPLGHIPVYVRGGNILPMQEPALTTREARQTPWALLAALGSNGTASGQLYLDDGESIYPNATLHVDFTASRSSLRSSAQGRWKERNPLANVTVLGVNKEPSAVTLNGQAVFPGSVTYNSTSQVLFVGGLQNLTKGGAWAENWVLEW
Test: glucose release, fit of v = Vmax[S]/
Type: biochemical
Conditions: 20 mM acetate pH 4.0, 40 °C, 60 min; substrate inhibition
Observable: Ki (mM)
Respond with the bare value in mM.

Below, 3 compounds whose answers are already recorded.
Incoming: # value lookup — system AnigAgdA (Aspergillus niger), readout Ki, item OC[C@H]1O[C@H](O[C@H]2[C@H](O)[C@@H](O)C(O)O[C@@H]2CO)[C@H](O)[C@@H](O)[C@@H]1O (stereo partly shown)
Outgoing: 12.0

Incoming: Lookup: Ki / AnigAgdA (Aspergillus niger) / OC[C@H]1O[C@H](O[C@H]2[C@H](O)[C@@H](O)[C@@H](O[C@H]3[C@H](O)[C@@H](O)[C@@H](O[C@H]4[C@H](O)[C@@H](O)[C@@H](O[C@H]5[C@H](O)[C@@H](O)[C@@H](O[C@H]6[C@H](O)[C@@H](O)C(O)O[C@@H]6CO)O[C@@H]5CO)O[C@@H]4CO)O[C@@H]3CO)O[C@@H]2CO)[C@H](O)[C@@H](O)[C@@H]1O (stereo partly shown)
Outgoing: 30.8

Incoming: Request body: readout Ki, system AnigAgdA (Aspergillus niger), query OC[C@H]1O[C@H](O[C@H]2[C@H](O)[C@@H](O)[C@@H](O[C@H]3[C@H](O)[C@@H](O)C(O)O[C@@H]3CO)O[C@@H]2CO)[C@H](O)[C@@H](O)[C@@H]1O (stereo partly shown) . Return the value.
Outgoing: 3.8

Switching to the query record.
Incoming: Ki of OC[C@H]1O[C@H](O[C@H]2[C@H](O)[C@@H](O)[C@@H](O[C@H]3[C@H](O)[C@@H](O)[C@@H](O[C@H]4[C@H](O)[C@@H](O)[C@@H](O[C@H]5[C@H](O)[C@@H](O)C(O)O[C@@H]5CO)O[C@@H]4CO)O[C@@H]3CO)O[C@@H]2CO)[C@H](O)[C@@H](O)[C@@H]1O (stereo partly shown) on AnigAgdA (Aspergillus niger)?
Outgoing: 19.6
